- TARGET DESC: SMARCA4 (Homo sapiens)
- Construct: SMARCA2/SMARCA4 protein degradation selectivity in MV4-11 cells; endogenous in cells; host or cells: MV4-11
- Sequence (P51532 whole entry): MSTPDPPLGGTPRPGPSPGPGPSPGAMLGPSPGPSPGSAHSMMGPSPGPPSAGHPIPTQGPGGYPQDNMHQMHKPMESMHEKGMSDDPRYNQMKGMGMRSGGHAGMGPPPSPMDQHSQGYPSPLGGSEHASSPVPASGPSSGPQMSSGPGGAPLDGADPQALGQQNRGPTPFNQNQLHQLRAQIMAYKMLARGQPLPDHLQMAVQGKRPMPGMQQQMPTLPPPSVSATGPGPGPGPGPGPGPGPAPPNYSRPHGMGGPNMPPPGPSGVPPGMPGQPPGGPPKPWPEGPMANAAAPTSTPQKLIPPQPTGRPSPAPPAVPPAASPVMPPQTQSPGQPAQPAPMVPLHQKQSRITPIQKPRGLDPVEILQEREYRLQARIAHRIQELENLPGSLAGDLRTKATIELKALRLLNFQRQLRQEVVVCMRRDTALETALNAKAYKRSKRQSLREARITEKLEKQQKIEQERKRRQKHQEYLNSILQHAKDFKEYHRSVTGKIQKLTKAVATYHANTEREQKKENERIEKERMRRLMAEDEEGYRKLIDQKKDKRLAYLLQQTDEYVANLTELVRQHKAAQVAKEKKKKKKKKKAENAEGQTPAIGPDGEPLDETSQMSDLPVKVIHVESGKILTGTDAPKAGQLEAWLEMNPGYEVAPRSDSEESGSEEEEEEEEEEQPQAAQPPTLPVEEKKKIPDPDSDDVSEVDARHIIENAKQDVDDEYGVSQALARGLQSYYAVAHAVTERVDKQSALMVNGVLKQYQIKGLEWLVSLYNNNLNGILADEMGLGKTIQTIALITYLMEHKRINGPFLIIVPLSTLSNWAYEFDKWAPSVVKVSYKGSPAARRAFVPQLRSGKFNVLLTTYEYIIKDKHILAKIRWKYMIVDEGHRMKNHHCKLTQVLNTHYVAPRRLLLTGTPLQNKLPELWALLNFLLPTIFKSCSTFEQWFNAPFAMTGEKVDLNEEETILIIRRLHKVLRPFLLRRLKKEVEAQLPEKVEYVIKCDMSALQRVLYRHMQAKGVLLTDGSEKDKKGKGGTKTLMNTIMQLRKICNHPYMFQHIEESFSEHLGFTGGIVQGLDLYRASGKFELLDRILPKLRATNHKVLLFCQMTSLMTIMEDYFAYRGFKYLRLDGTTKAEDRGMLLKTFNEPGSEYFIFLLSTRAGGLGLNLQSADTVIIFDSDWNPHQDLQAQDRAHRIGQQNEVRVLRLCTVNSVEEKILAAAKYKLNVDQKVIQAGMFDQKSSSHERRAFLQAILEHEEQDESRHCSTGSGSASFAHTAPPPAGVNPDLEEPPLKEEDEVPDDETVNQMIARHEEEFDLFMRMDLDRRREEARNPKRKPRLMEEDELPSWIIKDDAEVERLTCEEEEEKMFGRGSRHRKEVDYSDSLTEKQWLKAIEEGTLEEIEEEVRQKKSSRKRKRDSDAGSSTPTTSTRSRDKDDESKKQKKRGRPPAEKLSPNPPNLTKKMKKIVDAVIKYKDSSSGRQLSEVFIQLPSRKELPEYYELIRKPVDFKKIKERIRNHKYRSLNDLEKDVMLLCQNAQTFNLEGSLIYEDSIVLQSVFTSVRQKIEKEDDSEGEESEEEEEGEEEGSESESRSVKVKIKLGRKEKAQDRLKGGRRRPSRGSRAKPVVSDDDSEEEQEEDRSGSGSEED
- PROTOCOL SUMMARY: SMARCA4 Western blot degradation in MV4-11 cells
- Format: cell-based
- SETTINGS: MV4-11 cells, 24 h; read-out: SMARCA4 MSD MV411 degradation 24 h: Mean external-Abs DC50
DC50 values for the molecules below.
ENDPOINT NAME: DC50

INSERT INTO assay_data (molecule, target_desc, test_value) VALUES
  ('Cc1ncsc1-c1ccc(CNC(=O)[C@@H]2C[C@@H](O)CN2C(=O)[C@@H](NC(=O)C2(F)CC2)C(C)(C)C)c(OCCCCN2CCC(c3cnc(N4CCN5c6cc(-c7ccccc7O)nnc6NC[C@H]5C4)nc3)CC2)c1 (single isomer, unassigned) [I-49]', 'SMARCA4 (Homo sapiens)', '1 to 10 nM'),
  ('C#Cc1ccc([C@@H](CO)NC(=O)[C@@H]2C[C@@H](O)CN2C(=O)[C@@H](NC(=O)N2CC3(CC(N4CCC(c5cnc(N6CCc7[nH]c8nnc(-c9ccccc9O)cc8c7[C@H]6C)nc5)CC4)C3)C2)C(C)(C)C)nc1 [I-305]', 'SMARCA4 (Homo sapiens)', '> 100 nM'),
  ('C#Cc1cnc(CNC(=O)[C@@H]2C[C@@H](O)CN2C(=O)[C@@H](NC(=O)[C@H]2CCC3(CC2)C[C@H](N2CCC(c4cnc(N5CCN6c7cc(-c8ccccc8O)nnc7NC[C@H]6C5)nc4)CC2)C3)C(C)(C)C)c(OC)c1 (single isomer, unassigned) [I-298]', 'SMARCA4 (Homo sapiens)', '> 100 nM'),
  ('C#Cc1ccc(CNC(=O)[C@@H]2C[C@@H](O)CN2C(=O)[C@@H](NC(=O)N2CC3(CC(N4CCC(c5cnc(N6CCc7[nH]c8nnc(-c9ccccc9O)cc8c7[C@H]6CC)nc5)CC4)C3)C2)C(C)(C)C)cc1 [I-136]', 'SMARCA4 (Homo sapiens)', '> 100 nM'),
  ('C#Cc1ccc(CNC(=O)[C@@H]2C[C@@H](O)CN2C(=O)[C@@H](NC(=O)[C@H]2CCC3(CC2)C[C@H](N2CCC(N4CCC(N5CCN6c7cc(-c8ccccc8O)nnc7NC[C@H]6C5)CC4)CC2)C3)C(C)(C)C)c(OC)c1 (single isomer, unassigned) [I-177]', 'SMARCA4 (Homo sapiens)', '> 100 nM'),
  ('Cc1ncsc1-c1ccc(CNC(=O)[C@@H]2C[C@@H](O)CN2C(=O)C(c2cc(OC[C@H]3CC[C@H](N4CCC(c5cnc(N6CCc7[nH]c8nnc(-c9ccccc9O)cc8c7[C@H]6C)nc5)CC4)CC3)no2)C(C)C)cc1 (single isomer, unassigned) [I-1]', 'SMARCA4 (Homo sapiens)', '1 to 10 nM'),
  ('C#Cc1ccc(CNC(=O)[C@@H]2C[C@@H](O)CN2C(=O)[C@@H](NC(=O)[C@H]2CC3(C2)C[C@H](c2cnc(N4CCC(N5CCN6c7cc(-c8ccccc8O)nnc7NC[C@H]6C5)CC4)nc2)C3)C(C)(C)C)cc1 (stereo partly shown) [I-302]', 'SMARCA4 (Homo sapiens)', '10 to 100 nM'),
  ('C#Cc1ccc(CNC(=O)[C@@H]2C[C@@H](O)CN2C(=O)[C@@H](NC(=O)N2CC3(CC(N4CCC([C@H]5CC[C@@H](N6CCc7[nH]c8nnc(-c9ccccc9O)cc8c7[C@H]6C)CC5)CC4)C3)C2)C(C)(C)C)cc1 [I-185]', 'SMARCA4 (Homo sapiens)', '> 100 nM'),
  ('C#Cc1ccc(CNC(=O)[C@@H]2C[C@@H](O)CN2C(=O)[C@@H](NC(=O)[C@H]2CCC3(CC2)C[C@H](N2CCN(c4cnc(N5CCN6c7cc(-c8ccccc8O)nnc7NC[C@H]6C5)nc4)CC2)C3)C(C)(C)C)c(OC)c1 (single isomer, unassigned) [I-196]', 'SMARCA4 (Homo sapiens)', '> 100 nM'),
  ('C#Cc1ccc(CNC(=O)[C@@H]2C[C@@H](O)CN2C(=O)[C@@H](NC(=O)N2CC3(CC(N4CCC(c5cnc(N6CCc7[nH]c8nnc(-c9ccccc9O)cc8c7[C@H]6C)nc5)CC4)C3)C2)C(C)(C)C)c(OCCO)c1 [I-143]', 'SMARCA4 (Homo sapiens)', '10 to 100 nM');

Provenance of the data: patent US20250170248A1
